I'd be grateful if you could share measured EC50 (nM), cAMP inhibition in R1.G1 cells for these entries.
- TESTED_SYSTEM: mouse kappa opioid receptor (mouse, UniProt P33534 1-380)
- Sequence (P33534 whole entry): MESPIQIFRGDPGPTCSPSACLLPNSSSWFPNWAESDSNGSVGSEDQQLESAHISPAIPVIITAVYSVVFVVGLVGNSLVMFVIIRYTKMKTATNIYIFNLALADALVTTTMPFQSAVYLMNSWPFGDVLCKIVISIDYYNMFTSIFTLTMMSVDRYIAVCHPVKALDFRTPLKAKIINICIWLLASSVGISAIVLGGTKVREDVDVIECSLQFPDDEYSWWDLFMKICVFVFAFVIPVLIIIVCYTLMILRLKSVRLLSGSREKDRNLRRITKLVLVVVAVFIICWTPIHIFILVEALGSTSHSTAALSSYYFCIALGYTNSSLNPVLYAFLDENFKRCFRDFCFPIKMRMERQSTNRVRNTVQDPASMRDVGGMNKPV
- ASSAY_PROTOCOL: cell-based or functional assay
Square brackets hold non-standard residues; d marks the D form. Ends that are not written are not given here. dAgb = N=C(N)NCC[C@@H](N)C(=O)O; dNle = CCCC[C@@H](N)C(=O)O

Dear colleague, I am looking for the recorded EC50 (nM), cAMP inhibition in R1.G1 cells of the following binder: [dF][dF][dL][dOrn(iPr)]-{4‑amino‑4‑carboxylic piperidine} (also: two identical chains joined through C-termini to N1 and 4-amino group of piperidine scaffold) [Compound (49): 1N,4N-bis-[D-Phe-D-Phe-D-Leu-(iPr)D-Orn]-4-amino-4-carboxylic-piperidine]
1.83 nM

Dear colleague, I am looking for the recorded EC50 (nM), cAMP inhibition in R1.G1 cells of the following binder: [dF][dF][dL][dDap(amidino)]-{4‑amino‑4‑carboxylic piperidine} (also: two identical chains joined through C-termini to N1 and 4-amino group of piperidine scaffold) [Compound (50): 1N,4N-bis-[D-Phe-D-Phe-D-Leu-D-Dap(amidino)]-4-amino-4-carboxylic piperidine]
56.7 nM

Dear colleague, I am looking for the recorded EC50 (nM), cAMP inhibition in R1.G1 cells of the following binder: [dF][dF][dNle][dR][dP]-OH (N-terminus assumed; SMILES CCCC[C@@H](NC(=O)[C@@H](Cc1ccccc1)NC(=O)[C@H](N)Cc1ccccc1)C(=O)N[C@H](CCCNC(=N)N)C(=O)N1CCC[C@@H]1C(=O)O) [Compound (3): D-Phe-D-Phe-D-Nle-D-Arg-D-Pro-OH]
9.05 nM

Dear colleague, I am looking for the recorded EC50 (nM), cAMP inhibition in R1.G1 cells of the following binder: [dF][dF][dL][dAgb]-{4‑amino‑4‑carboxylic piperidine} (also: two identical chains joined through C-termini to N1 and 4-amino group of piperidine scaffold) [Compound (51): 1N,4N-bis-(D-Phe-D-Phe-D-Leu-D-Nar)-4-amino-4-carboxylic piperidine]
95.8 nM
